Values compiled from ChEMBL document CHEMBL1961873.

Target: Inhibitor of nuclear factor kappa-B kinase subunit alpha (Homo sapiens) (UniProt O15111);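 further: mean inhibition of IKKA, from the GSK PKIS data set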
Sequence (whole entry): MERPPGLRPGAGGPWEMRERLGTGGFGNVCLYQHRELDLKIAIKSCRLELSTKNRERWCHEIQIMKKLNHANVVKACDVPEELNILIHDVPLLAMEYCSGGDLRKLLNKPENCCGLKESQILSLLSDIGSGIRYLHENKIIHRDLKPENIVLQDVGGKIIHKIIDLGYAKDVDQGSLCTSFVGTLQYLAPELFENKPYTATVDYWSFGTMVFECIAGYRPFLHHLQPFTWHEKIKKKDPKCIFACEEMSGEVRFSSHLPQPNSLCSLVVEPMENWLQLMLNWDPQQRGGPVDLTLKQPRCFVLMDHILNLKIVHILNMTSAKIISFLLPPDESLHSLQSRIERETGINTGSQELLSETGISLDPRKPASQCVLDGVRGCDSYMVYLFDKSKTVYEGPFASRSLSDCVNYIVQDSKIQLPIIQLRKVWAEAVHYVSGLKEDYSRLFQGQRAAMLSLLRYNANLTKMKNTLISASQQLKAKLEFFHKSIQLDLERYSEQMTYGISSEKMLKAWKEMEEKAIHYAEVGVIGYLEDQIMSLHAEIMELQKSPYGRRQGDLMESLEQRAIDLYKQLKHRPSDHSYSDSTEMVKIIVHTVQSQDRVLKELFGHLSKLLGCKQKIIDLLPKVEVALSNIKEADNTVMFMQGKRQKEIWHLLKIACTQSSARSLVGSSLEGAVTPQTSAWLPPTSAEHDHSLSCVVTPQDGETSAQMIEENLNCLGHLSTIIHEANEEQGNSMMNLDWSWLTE
Conditions: at 1 µM
Can you tell me inhibition for the items I'm about to list?
Give bare numbers, in %.

Some compounds with recorded inhibition:
# smiles record, inhibition / %
rows = [
    ("O=C1Nc2ccc(I)cc2C1=Cc1cc(Br)c(O)c(Br)c1", 3.02),
    ("COC(=O)Nc1nc2ccc(Sc3ccc(NC(=O)Nc4cc(C(F)(F)F)ccc4F)cc3)cc2[nH]1", -2),
    ("CN(C)c1ccc2c(c1)/C(=C/Nc1ccc(S(N)(=O)=O)cc1)C(=O)N2", 6.64),
    ("CNC(=O)c1cncc(/C=C/c2c(C)cccc2C)c1", -0.54),
]

I would be grateful if you could share the reported inhibition for COc1ccc2cc(-c3c(-c4ccncc4)nc(-c4ccc(S(C)(=O)=O)cc4C)n3C)ccc2c1 .
3.23

---

Can you tell me inhibition for the items I'm about to list?
Target: MAP kinase-interacting serine/threonine-protein kinase 1 (Homo sapiens)
Conditions: at 0.1 µM
Description: GSK_PKIS: MKNK1 mean inhibition at 0.1 uM [Nanosyn]
Give bare numbers, in %.

# compound, target desc, readout, assay result
data = [
    ("COc1cc(N2CCN(C(C)C)CC2)ccc1Nc1nc(Nc2ccc(F)cc2C(=O)NC[C@@H](O)CO)c2cc[nH]c2n1", "MAP kinase-interacting serine/threonine-protein kinase 1 (Homo sapiens)", "inhibition", 3.33),
    ("Cc1ccc(NC(=O)c2ccoc2)cc1-c1ccc(C(=O)NCC2CC2)cc1", "MAP kinase-interacting serine/threonine-protein kinase 1 (Homo sapiens)", "inhibition", 3.06),
    ("Nc1nccc(-c2c(-c3ccc(F)cc3)ncn2C2CCC(O)CC2)n1 (centres undefined)", "MAP kinase-interacting serine/threonine-protein kinase 1 (Homo sapiens)", "inhibition", 0.34),
    ("FC(F)(F)c1cccc(Nc2nccc(-c3cnn4nc(-c5ccccc5)ccc34)n2)c1", "MAP kinase-interacting serine/threonine-protein kinase 1 (Homo sapiens)", "inhibition", 2.28),
    ("NCc1ccc(-n2c(-c3nonc3N)nc3cnccc32)cc1", "MAP kinase-interacting serine/threonine-protein kinase 1 (Homo sapiens)", "inhibition", 4.41),
]

Count: 4. Required value per item: inhibition.
1. COc1ccc2ncn(-c3cc(O[C@H](C)c4ccccc4Cl)c(C(N)=O)s3)c2c1
2. COc1ccc2cc(-c3c(-c4ccncc4)nc(-c4ccc([S+](C)[O-])cc4C)n3C)ccc2c1 (centres undefined)
3. COc1cc(Nc2ncc3c(C)nc(-c4cccc(Oc5ccccc5)c4)n3n2)cc(OC)c1OC
4. O=C(Nc1ccc(Oc2ccc3[nH]c(NC(=O)c4ccccc4)nc3c2)cc1)Nc1cc(C(F)(F)F)ccc1F

1: 1.84; 2: 5.22; 3: 0.32; 4: 3.79
